// Kd lookup, one value per entry
Biological target: T1, human galectin-10-His (human)
T1 construct: The last M of the tag may be Met1 of galectin-10; also called humanGal10-His; hGal10
T1 chain: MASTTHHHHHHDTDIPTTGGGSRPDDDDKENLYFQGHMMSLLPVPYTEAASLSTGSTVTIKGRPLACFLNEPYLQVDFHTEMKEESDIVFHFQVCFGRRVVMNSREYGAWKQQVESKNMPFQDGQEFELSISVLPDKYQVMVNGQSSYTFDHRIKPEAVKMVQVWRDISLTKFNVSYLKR
Assay: SPR Biacore (summary table)
A number alone suffices; assume nM.

Solved cases (2 shown):
# binder, Kd, nM
data = [
    ("10D02 scFv-human Fc (Fc fusion, also called 010D02; not shown: CH2-CH3 constant domains of human IgG1 (pUPEX50 scFv-Fc fusion vector)) scFv: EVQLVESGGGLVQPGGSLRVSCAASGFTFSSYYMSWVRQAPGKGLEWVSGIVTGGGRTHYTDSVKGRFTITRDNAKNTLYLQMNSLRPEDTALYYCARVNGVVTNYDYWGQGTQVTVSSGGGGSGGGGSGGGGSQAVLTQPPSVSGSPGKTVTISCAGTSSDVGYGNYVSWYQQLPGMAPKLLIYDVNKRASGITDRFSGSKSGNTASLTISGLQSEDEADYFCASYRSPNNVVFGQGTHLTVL", 2),
    ("11F02 scFv-human Fc (Fc fusion, also called 011F02; not shown: CH2-CH3 constant domains of human IgG1 (pUPEX50 scFv-Fc fusion vector)) scFv: ELQVVESGGGLVQPGGSLRLSCAASGFTFSTNYMNWVRQAPGKGLEWVSGITSHGARTYYADSVKGRFTISRDNSKNTLYLQMNSLKPEDTALYYCARTDHASLDAWGQGTLVTVSSGGGGSGGGGSGGGGSQTVVTQEPSLSVSPGGTVTLTCGLSSGSVTSSNYPGWYQQKPGQAPRTLIYNTNSRYSGVPNRFSGSISGNKAALTITGAQPEDEADYYCALYMGSSSYNTVFGGGTHLTVL", 5.4),
]

Sample 10B02 scFv-human Fc (Fc fusion, also called 010B02; not shown: CH2-CH3 constant domains of human IgG1 (pUPEX50 scFv-Fc fusion vector)) scFv: QVQLVESGGGLVQPGGSLRVSCAASGFTFSYHYMNWVRQAPGKGLEWVSGISAGGGRTYYADSVKGRFTISRDNAKNTLYLQMNSLNAEDTALYYCARVHGITNDYWGQGTQVTVSSGGGGSGGGGSGGGGSQSALTQPPSVSGSPGKTVTISCAGTSSDVGYGNYVSWYQQLPGMAPKLLIYEVNKRASGITDRFSGSKSGNTAFLTISGLQSEDEADYYCASYRNSNNWVFGGGTHLTVL — what was its Kd?
1.6
